test: Cytotoxicity against mouse J774 cells assessed as cell viability at 150 ug/ml after 48 hrs by MTT assay; type: cell-based; conditions: read-out: Activity
The entries below come with measured viability at 48 h, 150 ug/ml values attached.
API: value field is a number in %; no unit string.

Supply viability at 48 h, 150 ug/ml value. Item: `CN(C)c1ccc(/C=N/NC(=O)c2cnccn2)cc1` 89

Using known records, supply viability at 48 h, 150 ug/ml for `O=C(N/N=C/c1ccc(F)cc1)c1cnccn1` 71

Return viability at 48 h, 150 ug/ml (reported value) for this compound: `O=C(N/N=C/c1cccc(F)c1)c1cnccn1` 40
